The entries below come with measured MIC values attached.
- Test system: Pseudomonas aeruginosa
- methodDescription: Antimicrobial activity against Pseudomonas aeruginosa blood isolate 4677 containing PFGE clone A expressing beta-lactamase IMP-15 by broth microdilution method
- Type: functional
reportedEndpoint: MIC

compound: CCN1CCN(C(=O)N[C@@H](C(=O)N[C@@H]2C(=O)N3[C@@H]2SC(C)(C)[C@@H]3C(=O)O)c2ccccc2)C(=O)C1=O
dataValue: 64 µg/mL

compound: NCC[C@H](O)C(=O)N[C@@H]1C[C@H](N)[C@@H](O[C@H]2O[C@H](CN)[C@@H](O)[C@H](O)[C@H]2O)[C@H](O)[C@H]1O[C@H]1O[C@H](CO)[C@@H](O)[C@H](N)[C@H]1O
dataValue: > 128 µg/mL

compound: C[C@@H](O)[C@H]1C(=O)N2C(C(=O)O)=C(S[C@@H]3CN[C@H](C(=O)N(C)C)C3)[C@H](C)[C@H]12
dataValue: 128 µg/mL

compound: C[C@@H](O)[C@H]1C(=O)N2C(C(=O)O)=C(SCCNC=N)C[C@H]12 [IMIPENEM ANHYDROUS]
dataValue: > 128 µg/mL

compound: CC(C)(O/N=C(\C(=O)N[C@@H]1C(=O)N2C(C(=O)[O-])=C(C[n+]3ccccc3)CS[C@H]12)c1csc(N)n1)C(=O)O
dataValue: > 128 µg/mL
